In this section we review reported IC50 values for a set of molecules.
tgt: NamPT (Homo sapiens (Human), UniProt P43490)
Sequence (P43490 whole entry): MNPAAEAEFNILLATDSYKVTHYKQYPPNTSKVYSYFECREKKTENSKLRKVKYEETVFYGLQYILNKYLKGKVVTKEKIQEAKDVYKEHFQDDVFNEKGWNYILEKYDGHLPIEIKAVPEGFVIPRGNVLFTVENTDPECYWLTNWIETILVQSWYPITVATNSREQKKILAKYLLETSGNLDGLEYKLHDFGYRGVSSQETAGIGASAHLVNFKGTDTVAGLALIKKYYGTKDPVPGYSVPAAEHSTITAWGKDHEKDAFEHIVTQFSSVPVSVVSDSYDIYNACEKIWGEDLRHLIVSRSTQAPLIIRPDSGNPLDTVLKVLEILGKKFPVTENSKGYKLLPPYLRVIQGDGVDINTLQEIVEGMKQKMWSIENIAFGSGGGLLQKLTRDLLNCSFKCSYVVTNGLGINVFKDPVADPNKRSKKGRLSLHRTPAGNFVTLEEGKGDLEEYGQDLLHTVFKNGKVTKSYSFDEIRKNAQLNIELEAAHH
assay_method_text: Measurement of NamPT inhibitory ability IC50 (NamPT colorimetric assay kit, Abcam ab221819)
Type: biochemical
experimental_context: NamPT recombinant protein, WST-1 absorbance at 450 nm; class key in μM

| smiles_entry | IC50 |
| --- | --- |
| O=C(NCc1ccc(-c2nc3ccc(C(F)(F)F)cc3o2)cc1)c1cnc2nccn2c1 | < 0.05 µM |
| Cc1ccc2nc(-c3ccc(CNC(=O)c4ccc5nccn5c4)cc3)oc2c1 | 0.11 to 1 µM |
| O=C(O)c1ccc2nc(-c3ccc(CNC(=O)c4cnc5nccn5c4)cc3)oc2c1 | 0.11 to 1 µM |
| O=C(NCc1ccc(-c2nc3cc(Cl)c(C(F)(F)F)cc3o2)cc1)c1cnc2nccn2c1 | < 0.05 µM |
| Cc1cc2nc(-c3ccc(CNC(=O)c4cnc5nccn5c4)cc3)oc2cc1F | < 0.05 µM |
| O=C(NCc1ccc(-c2nc3ccc(Cl)cc3o2)cc1)c1cnc2nccn2c1 | < 0.05 µM |
| O=C(NCc1ccc(-c2nc3cc(Cl)ccc3s2)cc1)c1cnc2nccn2c1 | < 0.05 µM |
| O=C(NCc1ccc(-c2nc3ccc(Cl)cc3o2)cn1)c1cnc2nccn2c1 | < 0.05 µM |
| CCc1ccc2nc(-c3ccc(CNC(=O)c4cnc5nccn5c4)cc3)oc2c1 | < 0.05 µM |
| O=C(NCc1ccc(-c2nc3cc(Cl)ccc3o2)cc1)c1cnc2nccn2c1 | < 0.05 µM |
| COc1ccc2sc(-c3ccc(CNC(=O)c4cnc5nccn5c4)cc3)nc2c1 | < 0.05 µM |
| CCS(=O)(=O)c1ccc2nc(-c3ccc(CNC(=O)c4cnc5nccn5c4)cc3)oc2c1 | < 0.05 µM |
| Cc1cccc2nc(-c3ccc(CNC(=O)c4cnc5nccn5c4)cc3)oc12 | 0.11 to 1 µM |
| Nc1ccc2oc(-c3ccc(CNC(=O)c4cnc5nccn5c4)cc3)nc2c1 | 0.051 to 0.1 µM |
| O=C(NCc1ccc(-c2nc3cc(OCc4ccccc4)ccc3o2)cc1)c1cnc2nccn2c1 | > 1 µM |
